EC50 listing for selected molecules.
Biological target: Bile acid receptor (Homo sapiens, UniProt Q96RI1)
Sequence (Q96RI1 whole entry): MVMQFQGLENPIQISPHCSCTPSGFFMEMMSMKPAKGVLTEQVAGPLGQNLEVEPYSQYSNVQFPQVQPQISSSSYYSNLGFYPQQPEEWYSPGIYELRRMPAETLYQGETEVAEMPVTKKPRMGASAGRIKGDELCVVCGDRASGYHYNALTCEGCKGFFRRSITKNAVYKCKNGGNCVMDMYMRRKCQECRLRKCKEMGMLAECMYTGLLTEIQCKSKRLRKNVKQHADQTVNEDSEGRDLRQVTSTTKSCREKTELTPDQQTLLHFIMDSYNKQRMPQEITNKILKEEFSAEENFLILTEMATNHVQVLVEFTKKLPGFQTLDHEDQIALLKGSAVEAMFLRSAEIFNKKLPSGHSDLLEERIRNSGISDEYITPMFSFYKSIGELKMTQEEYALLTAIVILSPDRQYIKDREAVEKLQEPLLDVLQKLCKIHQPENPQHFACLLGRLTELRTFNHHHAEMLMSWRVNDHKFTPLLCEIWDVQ
Experiment: Agonist activity at human FXR expressed in human HeLa cells assessed as receptor activation by BSEP promoter-driven firefly luciferase reporter gene assay
Format: cell-based
Conditions: read-out: EC50

{"Smiles input": "COc1ccc(C(=O)Nc2ccc(C)c(C(=O)O)c2)c(NC(=O)c2ccc(C(C)(C)C)cc2)c1", "System name": "Bile acid receptor (Homo sapiens, UniProt Q96RI1)", "EC50 (µM)": 0.087}
{"Smiles input": "O=C(O)c1cccc(NC(=O)c2ccccc2NC(=O)c2ccc(C(F)(F)F)c(F)c2)c1", "System name": "Bile acid receptor (Homo sapiens, UniProt Q96RI1)", "EC50 (µM)": 5}
{"Smiles input": "COc1ccc(C(=O)O)cc1NC(=O)c1ccccc1NC(=O)c1ccc(C(C)(C)C)cc1", "System name": "Bile acid receptor (Homo sapiens, UniProt Q96RI1)", "EC50 (µM)": 4.7}
{"Smiles input": "O=C(O)c1cccc(NC(=O)c2ccccc2NC(=O)c2ccc3c(c2)OCO3)c1", "System name": "Bile acid receptor (Homo sapiens, UniProt Q96RI1)", "EC50 (µM)": 10}
{"Smiles input": "COc1cccc(NC(=O)c2ccccc2NC(=O)c2ccc(C(C)(C)C)cc2)c1", "System name": "Bile acid receptor (Homo sapiens, UniProt Q96RI1)", "EC50 (µM)": 0.38}

====

Molecular target: Peroxisome proliferator-activated receptor alpha (Homo sapiens)
Sequence (Q07869 whole entry, the tested form may be a part): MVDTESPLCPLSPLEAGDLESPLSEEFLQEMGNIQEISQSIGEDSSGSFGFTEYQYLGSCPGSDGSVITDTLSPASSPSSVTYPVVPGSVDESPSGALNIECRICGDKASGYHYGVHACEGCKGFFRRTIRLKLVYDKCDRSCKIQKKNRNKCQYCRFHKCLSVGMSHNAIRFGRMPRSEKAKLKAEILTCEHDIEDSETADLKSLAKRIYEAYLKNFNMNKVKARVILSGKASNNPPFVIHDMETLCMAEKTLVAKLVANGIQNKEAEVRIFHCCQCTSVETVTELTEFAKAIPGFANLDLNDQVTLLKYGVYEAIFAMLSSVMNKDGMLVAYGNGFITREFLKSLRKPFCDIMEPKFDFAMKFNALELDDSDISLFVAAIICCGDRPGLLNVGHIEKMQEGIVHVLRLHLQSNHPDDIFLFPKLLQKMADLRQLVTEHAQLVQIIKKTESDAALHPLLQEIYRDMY
Test: Activity at GAL4-tagged PPARalpha (unknown origin) expressed in COS7 cells assessed as receptor transactivation by luciferase reporter gene assay
Recorded endpoint: EC50

{"Smiles input": "COc1ccc(C(=O)Nc2cccc(C(=O)O)c2)c(NC(=O)c2ccc(C(C)(C)C)cc2)c1", "Recorded endpoint": "EC50", "Test value": "> 10 µM"}

====

Assay: Aqueous solubility of the compound
Type: physicochemical
Conditions: water (aqueous)
Recorded endpoint: solubility (µg/mL)

{"Smiles input": "COc1ccc(C(=O)Nc2cccc(C(=O)O)c2)c(NC(=O)c2ccc(C(C)(C)C)cc2)c1", "Recorded endpoint": "solubility", "Test value": 2.6}

====

Molecular target: G-protein coupled bile acid receptor 1 (Homo sapiens, UniProt Q8TDU6)
Sequence (Q8TDU6 whole entry): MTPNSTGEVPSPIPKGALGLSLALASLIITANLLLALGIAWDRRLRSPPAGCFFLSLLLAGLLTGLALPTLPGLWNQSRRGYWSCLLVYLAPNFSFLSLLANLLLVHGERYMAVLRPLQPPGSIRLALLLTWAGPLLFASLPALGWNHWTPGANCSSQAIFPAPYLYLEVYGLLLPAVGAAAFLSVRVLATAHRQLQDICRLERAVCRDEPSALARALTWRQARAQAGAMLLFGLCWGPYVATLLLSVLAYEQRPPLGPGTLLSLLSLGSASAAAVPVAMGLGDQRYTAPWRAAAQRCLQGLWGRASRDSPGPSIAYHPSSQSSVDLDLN
Experiment: Activity at TGR5 in human NCI-H716 cells assessed as effect on intracellular cAMP accumulation incubated for 60 mins by HTR-FRET assay

{"Smiles input": "COc1ccc(C(=O)Nc2cccc(C(=O)O)c2)c(NC(=O)c2ccc(C(C)(C)C)cc2)c1", "EC50 (µM)": 30}
